Please provide measured pIC50 for the entries that follow.
Target: recombinant human GST-Syk (Homo sapiens)
Construct: purchased Carna Biosciences 08-176
Assay: Homogeneous Time-Resolved Fluorescence (HTRF) assay for the recombinant human Syk enzyme
Type: biochemical
Details: recombinant human GST-Syk 5 pM, ATP 25 μM, 10-dose titration 10 μM to 0.508 nM; read-out: rhSYK Activity IC50
// scale note: pIC50 = -log10(conc_M); give the bare number

Qu. // pIC50 lookup, key: Cc1cc(Nc2cc(C(F)(F)F)ccn2)nc(-c2cn(C3CCC(C(=O)O)C(C)(C)C3)nn2)c1 (single isomer, unassigned) [Example 3.6]
Ans. 8.46

Qu. For the compound shown here, Cc1cc(Nc2cc(C(F)(F)F)ccn2)nc(-c2cn(CC3(O)CCC(C(=O)O)C(C)(C)C3)nn2)c1 (single isomer, unassigned) [Example 3.1] , give the reported pIC50.
Ans. 7.22

Qu. For the compound shown here, Cc1cc(Nc2nccc(C(F)(F)F)n2)cc(-c2cn(CCOCCO)nn2)c1 , give the reported pIC50.
Ans. 7.10

Qu. Query (compound): COC(=O)C1(n2cc(-c3cc(C)cc(Nc4cc(C(F)(F)F)ccn4)n3)nn2)CC1 ; field requested: pIC50
Ans. 7.83

Qu. Bench note: what pIC50 did Cc1cc(Nc2cc(C(C)F)ccn2)nc(-c2cn(CC(C)(O)C(C)(C)O)nn2)c1 (centres unmarked) [Example 21.32] show?
Ans. 7.65

Qu. Sample Cc1cc(Nc2cc(C(F)(F)F)ccn2)nc(-c2cn(C3CCC(C(=O)O)C(C)(C)C3)nn2)c1 (single isomer, unassigned) [Example 9.1] — what was its pIC50?
Ans. 8.43

Qu. Please give the measured pIC50 for this compound: Cc1cc(Nc2cc(C(F)(F)F)ccn2)nc(-c2cn(C[C@H](O)CC(N)=O)nn2)c1
Ans. 7.83

Qu. Returns the measured pIC50 for the input compound. Input: Cc1cc(Nc2cc(C(F)(F)F)ccn2)nc(-c2cn(CC(O)CN3CCCC3=O)nn2)c1 (centres unmarked)
Ans. 7.58

Qu. Returns the measured pIC50 for the input compound. Input: CCC(O)Cn1cc(-c2cc(C)cc(Nc3cc(C(F)(F)F)ccn3)n2)nn1 (racemic)
Ans. 7.80

Qu. Would you kindly share the measured pIC50 for Cc1cc(Nc2cc(C(F)(F)F)ccn2)nc(-c2cn(C3C=CCCC3)nn2)c1 (centres unmarked) ?
Ans. 7.28

Qu. Record request: pIC50 value, item Cc1cc(Nc2cc(C(F)F)ccn2)nc(-c2cn(C(C)C(C)(O)CO)nn2)c1 (single isomer, unassigned) [Example 30.7]
Ans. 8.85

Qu. Reported pIC50, compound Cc1cc(Nc2cc(C(F)(F)F)ccn2)nc(-c2cn(CC(C)(O)C(=O)O)nn2)c1 (centres unmarked) : ____
Ans. 7.58

Qu. Quick one: pIC50 of Cc1cc(Nc2ncc(F)c(C(F)F)n2)cc(-c2cn(CC3CNC(=O)O3)nn2)c1 (single isomer, unassigned) [Example 7.35] ?
Ans. 8.12

Qu. What does the record list as pIC50 for Cc1cc(Nc2nccc(C(F)(F)F)n2)cc(-c2cn(C3CCC(C(=O)OC(C)(C)C)CC3)nn2)c1 (centres unmarked) ?
Ans. 5.14

Qu. I would be grateful if you could share the reported pIC50 for Cc1cc(Nc2cc(C(F)(F)F)ccn2)nc(-c2cn(CC#N)nn2)c1 .
Ans. 7.66

Qu. What value of pIC50 has been reported for the following compound? Cc1ccnc(Nc2cc(C)cc(-c3cn(CC(O)C(F)(F)F)nn3)n2)c1 (racemic)
Ans. 6.89

Qu. What value of measured pIC50 is listed for Cc1cc(Nc2cc(C(F)(F)F)ccn2)nc(-c2cn(CS(N)(=O)=O)nn2)c1 ?
Ans. 8.29

Qu. Query: pIC50; subject: Cc1cc(Nc2cc(C(F)(F)F)ccn2)nc(-c2cn(C[C@H]3CNC(=O)O3)nn2)c1
Ans. 8.96

Qu. Returns the measured pIC50 for the input compound. Input: Cc1cc(Nc2cc(C(F)(F)F)ccn2)nc(-c2cn(-c3ccc(Br)cn3)nn2)c1
Ans. 5.95

Qu. Param item = Cc1cc(Nc2cc(C(F)(F)F)ccn2)nc(-c2cn(CC3(O)CCOC3)nn2)c1 (racemic) [Example 5.13] ; retrieve measured pIC50.
Ans. 7.93

Qu. Look up pIC50: Cc1cc(Nc2cc(C(F)F)ccn2)nc(-c2cn(CC3(C)CNC(=O)O3)nn2)c1 (single isomer, unassigned) [Example 7.9]
Ans. 8.08

Qu. Look up pIC50 for this compound: Cc1cc(Nc2nccc(C(F)F)n2)cc(-c2cn(C3CCCC(C)(O)C3O)nn2)c1 (single isomer, unassigned) [Example 29.3]
Ans. 7.98

Qu. Which pIC50 value is on record for Cc1cc(Nc2cc(C(F)(F)F)ccn2)nc(-c2cn(C[C@H](O)C(=O)O)nn2)c1 ?
Ans. 7.83
